Assay target: T1, thermostable variant of Streptomyces mobaraensis transglutaminase (Streptomyces mobaraensis, UniProt P81453 79-407)
T1 sequence: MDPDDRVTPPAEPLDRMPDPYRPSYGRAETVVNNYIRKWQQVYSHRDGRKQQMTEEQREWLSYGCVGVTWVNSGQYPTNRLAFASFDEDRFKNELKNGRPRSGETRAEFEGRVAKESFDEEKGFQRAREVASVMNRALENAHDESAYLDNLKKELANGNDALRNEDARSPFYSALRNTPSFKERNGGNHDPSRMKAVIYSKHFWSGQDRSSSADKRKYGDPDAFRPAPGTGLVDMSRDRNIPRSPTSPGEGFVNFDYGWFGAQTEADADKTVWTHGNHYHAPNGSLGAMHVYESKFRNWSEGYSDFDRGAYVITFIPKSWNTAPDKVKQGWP
Assay overview: cell-based or functional assay
Quantity name: Reduction in binding affinity of inhibitory peptide relative to WT

Previously resolved entries follow.
Entry MDNGAGEETKSLAETYRLTADDVANINALNESAPAASSAGPSFRAP [pro-peptide variant Y12L] has what Reduction in binding affinity of inhibitory peptide relative to WT? > 1.2 fold

Consider the binder shown here: MDNGAGEETKSYAETYRLTADDVPNINALNESAPAASSAGPSFRAP [pro-peptide variant A24P] What is its recorded Reduction in binding affinity of inhibitory peptide relative to WT? > 5 fold

Entry under review: MDNGAGEYTKSYAETYRLTADDVANINALNESAPAASSAGPSFRAP [pro-peptide variant E8Y] . Reported Reduction in binding affinity of inhibitory peptide relative to WT? > 1.2 fold

---
Reported Reduction in binding affinity of inhibitory peptide relative to WT, binder MDNGAGEETKSYAETYRLTADDVAN [pro-peptide truncation variant ΔI26-P46] : ____ > 1.2 fold

Which value of Reduction in binding affinity of inhibitory peptide relative to WT has been reported for MDNGAGEETKSYAETYRLTADPVANINALNESAPAASSAGPSFRAP [pro-peptide variant D22P] in the records? > 1.2 fold
